Just for reference, the Immune Epitope Database (IEDB) is where these values come from.

Listed sequences paired with reported pKd
molecular target: HLA-A*03:01; test: IEDB peptide-MHC binding, purified MHC/direct/fluorescence; filed as Kd, often an IC50 or EC50 that approximates it; bounds were set here for any values at or beyond the usual limits of such assays; settings: source organism: Escherichia coli O157:H7
pKd: −log10 of the molar value.

>  <SEQUENCE>
LLKLWIDKV

>  <TESTED SYSTEM>
HLA-A*03:01

>  <pKd>
≤ 4.70

$$$$
>  <SEQUENCE>
ITAGYNRYY

>  <TESTED SYSTEM>
HLA-A*03:01

>  <pKd>
5.49

$$$$

Consider the record given below.
Which pKd value is on record for ETWVETWAF ? ≤ 4.70

* * *

target: HLA-A*03:01; assay: IEDB peptide-MHC binding, purified MHC/direct/fluorescence; filed as Kd, often an IC50 or EC50 that approximates it; bounds were set here for any values at or beyond the usual limits of such assays; details: source organism: Corynebacterium glutamicum
MEASURE NAME: Kd

For the record VLPVPGASV , what value of Kd is listed for HLA-A*03:01? ≥ 20 µM

* * *

target: HLA-A*11:01; experiment: IEDB peptide-MHC binding, purified MHC/direct/fluorescence; filed as Kd, often an IC50 or EC50 that approximates it; bounds were set here for any values at or beyond the usual limits of such assays; conditions: source organism: Haemophilus influenzae
MEASURE NAME: Kd

Kd lookup needed for IMDEPTSSL , thanks. ≥ 20 µM

* * *

molecular target: HLA-A*02:03; assay: IEDB peptide-MHC binding, purified MHC/direct/fluorescence; filed as Kd, often an IC50 or EC50 that approximates it; bounds were set here for any values at or beyond the usual limits of such assays; details: source organism: Influenza A virus(A/swine/Henan/5/2004(H9N2))
MEASURE NAME: Kd
Quote the value and follow it with the unit of measurement.

Data request, read-out Kd, for YMFESKSMK 24 nM

* * *

target: HLA-A*69:01; experiment: IEDB peptide-MHC binding, purified MHC/competitive/fluorescence; filed as Kd, often an IC50 or EC50 that approximates it; bounds were set here for any values at or beyond the usual limits of such assays; details: source organism: Orthohantavirus andesense
MEASURE NAME: Kd

Value wanted: Kd (HLA-A*69:01) of entry VWKQLFPEL ≥ 20 µM

* * *

biological target: HLA-A*02:17; test: IEDB peptide-MHC binding, purified MHC/competitive/radioactivity; filed as Kd, often an IC50 or EC50 that approximates it; bounds were set here for any values at or beyond the usual limits of such assays; settings: source organism: Dengue virus 2 Jamaica/1409/1983
Kd by entry:
Write the answer as a number in nM, unit excluded.

Can you look up the measured Kd of WMTTEDMLAV for me? 2510

And the next one, YLALLAAFKV ? 62.3

Would you kindly repeat that for LLILCVTQV ? 5970

Okay, and ILIGVIITWI ? 17600

Similarly, RLITVNPIV ? 621

* * *

target: HLA-A*26:01; test: IEDB peptide-MHC binding, purified MHC/competitive/fluorescence; filed as Kd, often an IC50 or EC50 that approximates it; bounds were set here for any values at or beyond the usual limits of such assays; details: source organism: Coxiella burnetii RSA 331
MEASURE NAME: Kd

Need Kd of HMNKLPLAK , thanks. ≥ 20 µM

* * *

target: HLA-B*58:01; assay: IEDB peptide-MHC binding, purified MHC/direct/fluorescence; filed as Kd, often an IC50 or EC50 that approximates it; bounds were set here for any values at or beyond the usual limits of such assays; conditions: source organism: Influenza A virus (A/Quail/Shanghai/8/96(H9N2))
MEASURE NAME: Kd

For the sequence LVGGREWSY , what Kd is on record? ≥ 20 µM

* * *

biological target: HLA-A*02:01; experiment: IEDB peptide-MHC binding, purified MHC/competitive/fluorescence; filed as Kd, often an IC50 or EC50 that approximates it; bounds were set here for any values at or beyond the usual limits of such assays; conditions: source organism: Deerpox virus W-848-83
MEASURE NAME: Kd

Which measured Kd value corresponds to YVAGITLTH ? ≥ 20 µM

* * *

target: HLA-B*46:01; assay: IEDB peptide-MHC binding, purified MHC/direct/fluorescence; filed as Kd, often an IC50 or EC50 that approximates it; bounds were set here for any values at or beyond the usual limits of such assays; conditions: source organism: Giardia lamblia ATCC 50803
pKd: −log10 of the molar value.
MEASURE NAME: pKd

>  <SEQUENCE>
LLIQGLKTV

>  <VALUE MEASURED>
≤ 4.70

$$$$

Here is another sequence to look at.
State the recorded pKd for this entry: PPPPLQHPI ≤ 4.70

* * *

biological target: HLA-A*30:01; assay: IEDB peptide-MHC binding, purified MHC/direct/fluorescence; filed as Kd, often an IC50 or EC50 that approximates it; bounds were set here for any values at or beyond the usual limits of such assays; details: source organism: Camelpox virus CMS
MEASURE NAME: pKd
Scale for pKd: -log10 of concentration given in mol/L; no unit attached.

Given the entry HYRPYHYYH , report its measured pKd. 7.64

* * *

biological target: HLA-B*45:06; assay: IEDB peptide-MHC binding, purified MHC/competitive/fluorescence; filed as Kd, often an IC50 or EC50 that approximates it; bounds were set here for any values at or beyond the usual limits of such assays; settings: source organism: Yersinia pestis Nepal516
MEASURE NAME: Kd

// below: answered sequences
>  <SEQUENCE>
FYFNWNTPI

>  <Kd>
≥ 5 µM

$$$$
>  <SEQUENCE>
YRYCHQLAL

>  <Kd>
≥ 5 µM

$$$$

Moving on to the next sequence.
# Kd lookup, item MPFAWQFGF ≥ 5 µM

* * *

target: HLA-A*02:03; assay: IEDB peptide-MHC binding, purified MHC/competitive/radioactivity; filed as Kd, often an IC50 or EC50 that approximates it; bounds were set here for any values at or beyond the usual limits of such assays; conditions: source organism: Vaccinia virus WR
pKd: −log10 of the molar value.
Values of pKd greater than or equal to 6 map to fulfilled; values below map to not fulfilled.

// known answers, use as guide
>  <SEQUENCE>
NILMDSIFV

>  <GROUP>
fulfilled

$$$$
>  <SEQUENCE>
CIVAAVIIMA

>  <GROUP>
fulfilled

$$$$
>  <SEQUENCE>
IAVITETIPI

>  <GROUP>
fulfilled

$$$$
>  <SEQUENCE>
WLTPFEKEFT

>  <GROUP>
not fulfilled

$$$$

Exam item: decide whether the reported pKd for VASDVCKKNL is at least 6. not fulfilled

Okay, and EVRYIDITNI ? not fulfilled

Another sequence to look at: DISVNASKTI not fulfilled

Check IVLFQRFLR too. not fulfilled

Continue with GLYIPGTSVI fulfilled

* * *

target: HLA-A*02:01; experiment: IEDB peptide-MHC binding, purified MHC/competitive/fluorescence; bounds were set here for any values at or beyond the usual limits of such assays; details: source organism: Vaccinia virus
// IC50 lookup, one value per entry

>  <SEQUENCE>
KLSYRNKPS

>  <TESTED SYSTEM>
HLA-A*02:01

>  <VALUE MEASURED>
≥ 196 µM

$$$$

Here's the next entry for you.
Record request: IC50 value, item WAMEKSSKY ≥ 122 µM

* * *

molecular target: HLA-B*15:17; assay: IEDB peptide-MHC binding, purified MHC/direct/fluorescence; filed as Kd, often an IC50 or EC50 that approximates it; bounds were set here for any values at or beyond the usual limits of such assays; conditions: source organism: Listeria monocytogenes serotype 4b str. H7858
MEASURE NAME: Kd

So what's the measured Kd for this one? FRDEAGAIL ≥ 20 µM

* * *

molecular target: HLA-A*02:19; assay: IEDB peptide-MHC binding, purified MHC/direct/fluorescence; filed as Kd, often an IC50 or EC50 that approximates it; bounds were set here for any values at or beyond the usual limits of such assays; settings: source organism: Orthohantavirus andesense
MEASURE NAME: Kd

Find the measured Kd: item VWKQLFPEL , target or system HLA-A*02:19. ≥ 20 µM

* * *

target: HLA-A*69:01; assay: IEDB peptide-MHC binding, purified MHC/direct/fluorescence; filed as Kd, often an IC50 or EC50 that approximates it; bounds were set here for any values at or beyond the usual limits of such assays; settings: source organism: West Nile virus
MEASURE NAME: Kd

Given the sequence LYAVTTAVL , what is its reported Kd? ≥ 20 µM

* * *

target: HLA-A*03:01; assay: IEDB peptide-MHC binding, purified MHC/direct/fluorescence; filed as Kd, often an IC50 or EC50 that approximates it; bounds were set here for any values at or beyond the usual limits of such assays; conditions: source organism: Rickettsia prowazekii
pKd: −log10 of the molar value.
MEASURE NAME: pKd

Entry under review: YGGKKAVTY . Reported pKd? ≤ 4.70
